For each entry below, report its EC50 value.
# System Under Test: GLP-1R (Homo sapiens, UniProt P43220)
# Sequence (P43220 24-463): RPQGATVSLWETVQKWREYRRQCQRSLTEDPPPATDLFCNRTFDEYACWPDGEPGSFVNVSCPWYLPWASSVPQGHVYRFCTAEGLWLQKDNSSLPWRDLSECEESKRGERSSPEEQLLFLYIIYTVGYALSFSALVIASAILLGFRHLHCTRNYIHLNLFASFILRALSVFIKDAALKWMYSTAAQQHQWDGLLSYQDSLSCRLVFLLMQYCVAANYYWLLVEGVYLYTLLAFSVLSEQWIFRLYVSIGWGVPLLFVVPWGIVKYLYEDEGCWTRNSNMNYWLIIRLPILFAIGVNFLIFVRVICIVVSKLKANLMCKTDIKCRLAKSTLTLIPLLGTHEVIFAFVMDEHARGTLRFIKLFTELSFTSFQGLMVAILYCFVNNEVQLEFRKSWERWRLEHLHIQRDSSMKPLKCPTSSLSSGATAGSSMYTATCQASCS
# Measurement Description: GLP-1R activation: cAMP increase in CHO cells stably expressing GLP-1R
# Format: cell-based
# Measurement Context: cAMP increase, CHO cells stably expressing GLP-1R, 10 point dose response, 30 minutes incubation; read-out: EC50
Numbers only, in nM.

Hi there! I need EC50 for each item below, if you can.
1. Cc1nc(Cn2c(Cc3cc(F)c(-c4cccc(OCc5ccc(C#N)cc5F)n4)cc3F)nc3ccc(C(=O)O)cc32)oc1C
2. COCCn1c(Cc2ccc(-c3cc(C#N)cc(OCc4ccc(C#N)cc4F)n3)cc2F)nc2ccc(C(=O)O)cc21

Resp:
[1420, 4.9]
